Data provenance is ChEMBL document CHEMBL5303304.

Test system: U2OS
Assay name: Incucyte cell viability with U2OS; also: unitless GR value; below 1 slowed growth and below 0 cell loss
Assay type: toxicity, cell-based
Applied conditions: human, 12 h, 10 µM, compound concentration 10 uM, replicate number 1
Observable: Growth Rate

Below: 5 compounds and their reported Growth Rate.
C/C=C1\C(=O)CC2C3CCC4=CC(=O)CC[C@]4(C)C3CC[C@]12C (stereo not given in full) ... 0.73
Cc1ccc(NS(=O)(=O)c2ccc3c(c2)C2C=CCC2C(c2ccc(C(=O)O)cc2)N3)cc1C (stereo not given) ... 0.82
CCCCC[C@H](O)/C=C/[C@H]1[C@H](O)CC(=O)[C@@H]1CCCCCCC(=O)O [ALPROSTADIL] ... 0.94
COc1cc(C(C)C)c(Oc2cnc(NC(CO)CO)nc2N)cc1I ... 0.93
Cc1nnc2n1-c1sc3c(c1C(c1ccccc1Cl)=NC2)C[C@@H](C(=O)N1CCOCC1)C3 ... 0.84

Problem: Please report Growth Rate for the following compound: "COc1cc(C(=O)NC2CCN(C)CC2)ccc1Nc1ncc(C(F)(F)F)c(NCc2ccc(C)cc2N(C)S(C)(=O)=O)n1.O=CO.O=CO"
Solution: 0.11

Problem: Please report Growth Rate for the following compound: "CCCOc1cnc(CN/C=C2\C(=O)NC(=O)c3ccc(I)cc32)cc1O"
Solution: 0.89

Problem: Please report Growth Rate for the following compound: COc1cc(N2CCC(N3CCN(C)CC3)CC2)ccc1Nc1ncc(Cl)c(Nc2ccccc2S(=O)(=O)C(C)C)n1 [TAE-684]
Solution: -0.09

Problem: Please report Growth Rate for the following compound: Cc1cc(C)c(NC(=O)C2CC3CCC2C3)c(C)c1 (stereo not given)
Solution: 0.47

Problem: Please report Growth Rate for the following compound: C=C[C@H]1C[N@@]2CC[C@H]1C[C@@H]2[C@@H](O)c1ccnc2ccc(OC)cc12 [QUINIDINE]
Solution: 0.59

Problem: Please report Growth Rate for the following compound: "CN1CCC(C#N)(NC(=O)[C@@H](NC(=O)N2CCOCC2)C(C)(C)C)CC1"
Solution: 0.98

Problem: Please report Growth Rate for the following compound: "CO[C@H](C)CN1CC[C@]2(C)c3cccc(O)c3C[C@H]1C2(C)C.Cl"
Solution: 0.7

Problem: Please report Growth Rate for the following compound: "COC(=O)c1sccc1S(=O)(=O)Nc1ccc(Nc2ccccc2)cc1OC"
Solution: 0.91

Problem: Please report Growth Rate for the following compound: O=C1CCC(N2Cc3cc(CNC(=O)C(F)(F)c4ccc(Cl)cc4)ccc3C2=O)C(=O)N1 (stereo not given)
Solution: 0.97

Problem: Please report Growth Rate for the following compound: "Cc1ccc(NC(=O)c2ccc3c(c2)OCCO3)cc1NC(=O)c1ccc2nc(OCCN3CCCC3)ccc2c1"
Solution: -0.04

Problem: Please report Growth Rate for the following compound: CCN(C(=O)c1cc(F)ccc1Oc1cncnc1N1CC2(CCN(C[C@H]3CC[C@H](NS(=O)(=O)CC)CC3)CC2)C1)C(C)C [REVUMENIB]
Solution: 0.8

Problem: Please report Growth Rate for the following compound: CCNc1ccc(-c2nn(-c3ccccc3C)c3c2C(C)Cc2nc(NC(=O)OC)sc2-3)cn1.O=C(O)C(F)(F)F (stereo not given)
Solution: 0.39

Problem: Please report Growth Rate for the following compound: C=CC(=O)N1CCC[C@@H](n2nc(-c3ccc(Oc4ccccc4)cc3)c3c(N)ncnc32)C1 [IBRUTINIB]
Solution: 0.53

Problem: Please report Growth Rate for the following compound: C[C@@H]1C[C@H](N)C[C@H](c2ccncc2NC(=O)c2ccc(F)c(-c3c(F)cccc3F)n2)C1 [LGH-447]
Solution: 0.59

Problem: Please report Growth Rate for the following compound: O=C(Cc1ccccc1)Nc1nnc(N2C[C@H]3C[C@@H]2CN3c2cccnn2)s1 [A-446]
Solution: 0.68

Problem: Please report Growth Rate for the following compound: "Cc1ccc(S(=O)(=O)Nc2ccc(-n3nc(C(F)(F)F)cc3C(F)(F)F)cc2)cc1"
Solution: 0.91

Problem: Please report Growth Rate for the following compound: CC/C(=C(\c1ccccc1)c1ccc(OCCN(C)C)cc1)c1ccccc1.O=C(O)CC(O)(CC(=O)O)C(=O)O [TAMOXIFEN CITRATE]
Solution: 0.8

Problem: Please report Growth Rate for the following compound: c1cnc2cc3c(cc2n1)[C@@H]1CNC[C@H]3C1 [VARENICLINE]
Solution: 0.98

Problem: Please report Growth Rate for the following compound: "CNC(=O)c1c(F)cccc1Nc1nc(Nc2cc3c(cc2OC)CCN3C(=O)CN(C)C)nc2[nH]ccc12"
Solution: 0.02

Problem: Please report Growth Rate for the following compound: CC(CNS(=O)(=O)C(C)C)c1ccc(-c2ccc(C#N)cc2)cc1 (stereo not given)
Solution: 0.81
